- method_notes: Solubility experiments in different media (thermodynamic solubility)
- Type: physicochemical
- study_conditions: FaSSIF, 37 °C, fassif, thermodynamic from solid, FaSSIF, read-out: Solubility of free base crystal form I
- Text: The solubility of the free base crystal form I and the free base crystal form II in media such as pH 1.0-8.0 USP buffer, artificial simulated gastric fluid (FaSSGF), fasted-state artificial simulated intestinal fluid (FaSSIF), fed-state artificial simulated intestinal fluid (FeSSIF) and pure water was compared to provide a basis for the evaluation of drugability.
result_type: solubility at 2 h (µg/mL)
Answers are plain numbers, in µg/mL.

Endpoint output: solubility at 2 h of CC(C)(O)c1nc(N2C[C@H]3CN(C(=O)c4c(F)cccc4-c4ncccn4)C[C@H]3C2)ncc1F [free base crystal form I] . Value?
247

---

- method_notes: Solubility experiments in different media (thermodynamic solubility)
- Type: physicochemical
- study_conditions: USP buffer pH 1.0, 37 °C, pH 1, simulated gastric fluid, thermodynamic from solid, pH 1.0, read-out: Solubility of free base crystal form I
result_type: solubility at 2 h (µg/mL)
Give bare numbers, in µg/mL.

Endpoint output: solubility at 2 h of CC(C)(O)c1nc(N2C[C@H]3CN(C(=O)c4c(F)cccc4-c4ncccn4)C[C@H]3C2)ncc1F [free base crystal form I] . Value?
799

---

- method_notes: PK studies in animals of the free base crystal forms
- Type: in vivo
- study_conditions: Sprague-Dawley (SD), rat, plasma, po, 5 mg/kg, PO, 5MPK, 0.5%CMC-Na, SD rats, read-out: MRT 0-∞
result_type: MRT inf (h)
Numbers only, in h.

Endpoint output: MRT inf of CC(C)(O)c1nc(N2C[C@H]3CN(C(=O)c4c(F)cccc4-c4ncccn4)C[C@H]3C2)ncc1F [free base crystal form I] . Value?
2.2

---

- method_notes: Solubility experiments in different media (thermodynamic solubility)
- Assay type: physicochemical
- study_conditions: USP buffer, 37 °C, pH 6, aqueous buffer, thermodynamic from solid, pH 6.0, read-out: Solubility of free base crystal form II
result_type: solubility at 2 h (µg/mL)
One number for each entry, in µg/mL.

Endpoint output: solubility at 2 h of CC(C)(O)c1nc(N2C[C@H]3CN(C(=O)c4c(F)cccc4-c4ncccn4)C[C@H]3C2)ncc1F [free base crystal form II] . Value?
50

---

- method_notes: Solubility experiments in different media (thermodynamic solubility)
- Type: physicochemical
- study_conditions: USP buffer pH 4.5, 37 °C, pH 4.5, aqueous buffer, thermodynamic from solid, pH 4.5, read-out: Solubility of free base crystal form II
result_type: solubility at 2 h (µg/mL)
Numbers only, in µg/mL.

Endpoint output: solubility at 2 h of CC(C)(O)c1nc(N2C[C@H]3CN(C(=O)c4c(F)cccc4-c4ncccn4)C[C@H]3C2)ncc1F [free base crystal form II] . Value?
53

---

- method_notes: PK studies in animals of the free base crystal forms
- Format: in vivo
- study_conditions: Sprague-Dawley (SD), rat, plasma, iv, 2 mg/kg, 2MPK, 20%HP-B-CD solution, SD rats
result_type: AUC(0-t) (ng·h/mL)
Answers are plain numbers, in ng·h/mL.

Endpoint output: AUC(0-t) of CC(C)(O)c1nc(N2C[C@H]3CN(C(=O)c4c(F)cccc4-c4ncccn4)C[C@H]3C2)ncc1F [free base crystal form I] . Value?
2280
